B1: Osa-1-4 twister ribozyme (parent)
chain: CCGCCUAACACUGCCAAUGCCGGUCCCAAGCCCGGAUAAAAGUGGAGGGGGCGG

- Variants of: B1
- Test protocol: self-cleavage, relative activity (ratio to wild type); higher = more cleavage; co-transcriptional
Measured self-cleavage determines class: low band: < 0.08; middle band: ≥ 0.08 and < 0.4; high band: ≥ 0.4

{"Change": "A16C G54U", "Category label": "high band"}
{"Change": "A38C G47A", "Category label": "middle band"}
{"Change": "C21U U24G", "Category label": "middle band"}
{"Change": "C20A G42U", "Category label": "low band"}
{"Change": "A38G G51U", "Category label": "middle band"}
{"Change": "G19C G42A", "Category label": "low band"}
{"Change": "A28U G50C", "Category label": "high band"}
{"Change": "C25A U37G", "Category label": "middle band"}
{"Change": "C15G U18G", "Category label": "middle band"}
{"Change": "C32A G51U", "Category label": "low band"}
{"Change": "A41G G44A", "Category label": "middle band"}
{"Change": "A16G G42A", "Category label": "high band"}
{"Change": "C21U G19A", "Category label": "high band"}
{"Change": "G48U G51U", "Category label": "low band"}
{"Change": "A29C G23A", "Category label": "low band"}
{"Change": "A16G G45A", "Category label": "high band"}
{"Change": "C20G G30C", "Category label": "low band"}
{"Change": "A17U G19U", "Category label": "middle band"}
